- System: OVCAR-5
- procedure-details: NCI tumour cell line growth inhibition, 48 h
Activity calls are given as the source filed them. Rule as the data show it: active = GI50 up to about 1.1 µM and inactive = higher.
readout-kind: GI50

Previously resolved entries follow.
INSERT INTO measurements (compound, endpoint_result) VALUES
  ('Oc1ccc(Cl)cc1-c1cc(-c2ccccc2)nc(NCN2CCCCC2)n1', '> 100 µM (inactive)'),
  ('CSC1(C)CC2C(CC1N1CCCCC1)C2(C)C (configuration not stated)', '> 100 µM (inactive)'),
  ('COc1ccc(CCNC2=CC(=O)c3ncccc3C2=O)cc1OC', '2.7 µM (inactive)');

Give recorded GI50 with OVCAR-5 for the following compound: COc1ccc(OC)c2c(=S)c3ccccc3[nH]c12
> 94.8 µM (inactive)

// same read-out, input: Nc1cn(C2OC(CC(c3ccccc3)(c3ccccc3)c3ccccc3)C(O)C2O)c(=O)[nH]c1=O (configuration not stated)
21.2 µM (inactive)

// same read-out, input: CCOC(=O)/C=C1\Nc2ccccc2-n2nnnc21
> 100 µM (inactive)

What do you get for OCC(O)C(O)C(C=NNc1ncnc2ccc(Br)cc12)=NNc1ncnc2ccc(Br)cc12 (configuration not stated) ?
5.13 µM (inactive)

// query: COc1cc(Br)c(/C=N\c2cccc3cc(OC)c(OC)cc23)cc1OC
> 100 µM (inactive)

====

# GI50 per entry
- System: NCI-H522
- procedure-details: NCI tumour cell line growth inhibition, 48 h
Calls of active or inactive are those of the source. No stated cut-off is given here; in the data, active = GI50 up to about 1.1 µM and inactive = higher. Residues, ends and D or L forms follow the SMILES beside them. *: point of attachment. Boc = CC(C)(C)OC(=O)*; OBn = c1ccc(CO*)cc1; Bn = c1ccc(C*)cc1

Example entries and their recorded answers appear below.
INSERT INTO results (compound, readout_kind, endpoint_result) VALUES
  ('Cc1ccc(S(=O)(=O)NCCCSCCO)cc1', 'GI50', '> 100 µM (inactive)'),
  ('CC(OC1CC(=O)CC2C(=O)C=CC(=O)C12)c1ccccc1 (stereo not given)', 'GI50', '1.53 µM (inactive)');

Can you share its GI50? I mean this compound: CC(C)CC(NC(=O)C(Cc1ccccc1)NC(=O)C(COCc1ccccc1)NC(=O)OC(C)(C)C)C(=O)OCc1ccccc1 (stereo not drawn) (Boc-Ser(Bn)-Phe-Leu-OBn; configuration not given here)
13.8 µM (inactive)

Param item: c1ccc2c(c1)oc1ccc3nsnc3c12
> 100 µM (inactive)

Entry to check: O=c1[nH]c(=O)n(C2CC(O)C(CO)O2)cc1Oc1ccccc1 (stereo not given)
> 100 µM (inactive)

====

- Test system: UACC-257
- procedure-details: NCI tumour cell line growth inhibition, 48 h
Active and inactive are the calls of the source. Cut-off read from the data, not from the text of the source: active = GI50 up to about 1.1 µM and inactive = higher.
readout-kind: GI50

Which GI50 reading was recorded for the molecule C1CCC2C(C1)CCCC2NC1=NCCO1 (configuration not stated) ?
69.3 µM (inactive)

What do you have for CC(=O)CC[N+](C)(C)C ?
25.8 µM (inactive)

// same read-out, input: COc1ccc2c3c(c(C(=O)O)oc13)CCC2
> 100 µM (inactive)

Further, for CCOC(=O)N1CC2(C)C=CC1C(C(=O)OC)C2 (configuration not stated) ?
> 100 µM (inactive)

Now consider COc1cc(-c2ccccc2)cn2c1nc1ccccc12 .
22.7 µM (inactive)

Moving on to the next molecule: CCOc1cc(/C=N/c2ccc(Oc3ccc(Cl)cc3)c(Cl)c2)ccc1O
27.1 µM (inactive)

Ok, now c1ccc2c(c1)[nH]c1c2nc2ncccn21
> 100 µM (inactive)

Also CCCCCCCCCCCCCCCCNc1cccc2ccccc12 ?
> 100 µM (inactive)

Continue with O=C(O)C(Cc1ccccc1)N1C(=O)N/C(=C\c2ccc(F)cc2)C1=O (configuration not stated)
> 100 µM (inactive)

Also need Cc1cc2c(cc1C)[n+]([O-])c(C(=O)/C=C/c1ccccc1Cl)c(C)[n+]2[O-] , thanks.
23 µM (inactive)

For Cc1csc2n(C)c(=O)c3ccccc3[n+]12 then?
> 100 µM (inactive)

Field entry: CC(C)(C)O/N=C/c1cc(NC(=S)c2ccccc2)ccc1Cl
13.1 µM (inactive)

All figures here come from ChEMBL document CHEMBL1201862.
